B1: TPR t1 (parent)
chain: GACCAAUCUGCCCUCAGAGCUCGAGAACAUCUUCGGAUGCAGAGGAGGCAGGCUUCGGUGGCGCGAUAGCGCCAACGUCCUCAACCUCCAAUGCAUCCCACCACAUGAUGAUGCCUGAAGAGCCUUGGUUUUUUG

Variants of: B1
method_description: polymerase ribozyme fitness, log enrichment relative to wild type (log ratio); higher = more active; in vitro selection for triplet polymerase activity
Use -1 as the dividing line for polymerase ribozyme fitness (log ratio), with the line itself on the class 1 side and lower values as class 0.

Answered cases to consult:
>  <mutant_label>
A75G

>  <class_assignment>
class 1

$$$$
>  <mutant_label>
C49A C72G C89G G113U

>  <class_assignment>
class 0

$$$$
>  <mutant_label>
U78C U81C

>  <class_assignment>
class 1

$$$$
>  <mutant_label>
C8A C12G U14C C73U G77C C101A

>  <class_assignment>
class 0

$$$$
>  <mutant_label>
A66U U125G

>  <class_assignment>
class 0

$$$$
>  <mutant_label>
G52A U116C

>  <class_assignment>
class 1

$$$$
>  <mutant_label>
C13G G63C U112C G127C U129A

>  <class_assignment>
class 0

$$$$
>  <mutant_label>
G120A U130A

>  <class_assignment>
class 1

$$$$
>  <mutant_label>
A18G G42C C99A

>  <class_assignment>
class 0

$$$$
>  <mutant_label>
C20G G63U C82G G113C G128U

>  <class_assignment>
class 0

$$$$

Problem: Given U130G U132A , state whether its polymerase ribozyme fitness (log ratio) is at least -1.
Result: class 0
